assay-overview: cell viability in Huh7 cells, primary screen, cytotoxicity control for HCV replication inhibitor project, CellTiter-Glo luminescence, basal, 48 h (AID 1143);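 note: Huh7 hepatoma cells carrying a hepatitis C replication reporter with no stimulus; test concentration not given here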
study-conditions: Huh7 HCV replicon, higher = more signal, called active from +8 up or from −8 down
Active and inactive are the calls of the source.
quantity: z-score

> print(dat)
                                   compound     measured.value
1  CO[C@H]1COC(=O)[C@@H](Cc2ccccc2)NC(=O)[C@@H](C)COC(=O)CCC[C@@H]1C  -0.382 (inactive)
2  COC(=O)[C@H](C)NC(=O)CCC1CC(OC(=O)NCc2ccc3c(c2)OCO3)CC2(CCCC(COC(=O)NCc3cccc(C(F)(F)F)c3)O2)O1 (some centres undefined)  -0.109 (inactive)
3               C[n+]1ccc(-c2ccc(CO)cc2)cc1  0.0559 (inactive)

// next entry
Ask: Entry C[C@H]1CC[C@H]2C(=O)O[C@H](COc3ccc(C(C)(C)C)cc3)CN2[C@@H]1c1ccc(Br)cc1 : reported z-score = ?
Reply: -1.47 (inactive)

* * *

subject-of-test: NADPH oxidase 2 (Homo sapiens)
assay-overview: NOX2-dependent H2O2 signal modulators, primary screen, NOX inhibitor project, cell-based, HEK293-NOX2, PMA-stimulated, Amplex Red fluorescence (AID 1159); note: test concentration not given here
study-conditions: 45 min, higher = more signal, called active from +8 up or from −8 down
The source made the active and inactive calls.
Entries annotated with measured z-score

// below: answered compounds
compound	quantity	measured-value
CCOC(=O)[C@H](Cc1ccccc1)NC(=O)CCC1CC(OC(=O)NCc2cccc3ccccc23)CC2(CCCC(COC(=O)NCC(c3ccccc3)c3ccccc3)O2)O1 (stereo not given in full)	z-score	0.782 (inactive)
CC(C)CON=C1C[C@@H](O)[C@@H](O)[C@@H]2[C@@H]3C(=O)N(C4CCCCC4)C(=O)[C@@H]3CC[C@H]12	z-score	-0.671 (inactive)
CC(C)=CCCC(C)=CCON=C1C[C@@H](O)[C@@H](O)[C@@H]2[C@@H]3C(=O)N(C4CCCCC4)C(=O)[C@@H]3CC[C@@H]12	z-score	0.606 (inactive)

Ask: Entry CC(C)(C)N1C(=O)[C@H]2[C@H]3[C@H](O)[C@H](O)CC(=O)[C@H]3CC[C@H]2C1=O : reported z-score = ?
Reply: 1.22 (inactive)

Ask: Entry C=CC[C@@H]1C=C[C@H](ON=C(C)CCC(=O)OC[C@H]2O[C@H](C#Cc3ccccc3)C=C[C@@H]2Oc2ccc(C)cc2)[C@@H](CO)O1 : reported z-score = ?
Reply: -0.367 (inactive)

Ask: Entry CCCCC#C[C@@H]1C=C[C@H](Oc2ccc(C(=O)OC)cc2)[C@@H](COC(=O)OCC)O1 : reported z-score = ?
Reply: 1.82 (inactive)

Ask: Entry CO[C@@H]1COC(=O)CC=C[C@H](C)[C@H](OC)COC(=O)[C@H](C)NC(=O)CC=C[C@H]1C : reported z-score = ?
Reply: -0.402 (inactive)

Ask: Entry C#CCCCON=C1[C@H]2CCn3c(=O)n(C)c(=O)n3[C@H]2[C@H](O)[C@@H]2O[C@H]12 : reported z-score = ?
Reply: -0.0249 (inactive)

Ask: Entry CC(C)CON=C1C[C@@H](O)[C@@H](O)[C@@H]2[C@@H]3C(=O)N(C(C)(C)C)C(=O)[C@@H]3CC[C@H]12 : reported z-score = ?
Reply: 1.47 (inactive)

Ask: Entry CC(C)(C)N1C(=O)[C@H]2[C@H]3[C@H](O)C=CC(=O)[C@@H]3CC[C@H]2C1=O : reported z-score = ?
Reply: 0.497 (inactive)
